Reference for the values: patent US20090062326A1

- MEASUREMENT_DESCRIPTION: plasma darifenacin concentration in nude mice
- Format: in vivo, mouse
- PROTOCOL_CONDITIONS: mouse, plasma, sc, 3 mg/kg per day, s.c. minipump, read-out: average plasma darifenacin concentration at which tumor growth was reduced
READOUT_TYPE: concentration at 4 weeks (ng/mL)
Reply with just the number (in ng/mL).

# input # get_value(readout='concentration at 4 weeks', item= NC(=O)C(c1ccccc1)(c1ccccc1)[C@@H]1CCN(CCc2ccc3c(c2)CCO3)C1 [darifenacin] )
# output 9.4
